Biological target: MNK1 (Homo sapiens, UniProt Q9BUB5)
Construct: purchased Carna Biosciences
Sequence (Q9BUB5 whole entry): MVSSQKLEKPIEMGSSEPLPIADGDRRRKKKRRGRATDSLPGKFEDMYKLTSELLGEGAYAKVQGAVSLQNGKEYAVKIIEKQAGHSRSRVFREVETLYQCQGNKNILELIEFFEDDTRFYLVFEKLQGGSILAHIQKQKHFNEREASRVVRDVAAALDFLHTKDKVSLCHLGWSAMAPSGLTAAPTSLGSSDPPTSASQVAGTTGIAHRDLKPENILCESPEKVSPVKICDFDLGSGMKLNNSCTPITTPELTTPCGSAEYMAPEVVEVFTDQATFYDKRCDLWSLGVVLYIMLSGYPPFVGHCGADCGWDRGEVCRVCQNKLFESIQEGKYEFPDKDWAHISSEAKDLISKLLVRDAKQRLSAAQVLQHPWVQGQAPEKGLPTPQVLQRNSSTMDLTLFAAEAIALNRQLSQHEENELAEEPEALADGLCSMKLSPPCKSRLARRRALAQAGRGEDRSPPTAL
Test: Kinase panel profiling at 1 µmol/L (mobility shift assay, Carna)
Format: biochemical
Conditions: 1 µmol/L of BTK inhibitor
Reported Percentage inhibition of kinase enzyme activity is given for each of the following molecules.
Give just the number in %; leave the unit off.

Examples with their reported Percentage inhibition of kinase enzyme activity follow.
molecule	result
CC#CC(=O)N1CCC[C@H]1c1nc(-c2ccc(C(=O)Nc3ccccn3)cc2)c2c(N)nccn12 [acalabrutinib]	11.59
O=C(c1ccc(Oc2ccccc2)cc1Cl)c1c[nH]c2ncnc(N[C@@H]3CC[C@@H](CO)OC3)c12 [nemtabrutinib]	7.10
COc1ccc(F)cc1C(=O)NCc1ccc(-c2nn([C@@H](C)C(F)(F)F)c(N)c2C(N)=O)cc1 [pirtobrutinib]	2.15

Please examine the following record next.
Please look up its Percentage inhibition of kinase enzyme activity: C=CC(=O)N1CCC[C@@H](n2nc(-c3ccc(Oc4ccccc4)cc3)c3c(N)ncnc32)C1 [ibrutinib]
14.52

----------
Reported Percentage inhibition of kinase enzyme activity is given for each of the following compounds.
Target: JAK2 (Homo sapiens, UniProt O60674)
Construct: purchased Carna Biosciences
Assay: Kinase panel profiling at 1 µmol/L (mobility shift assay, Carna)
Format: biochemical
Conditions: 1 µmol/L of BTK inhibitor
Give just the number in %; leave the unit off.

Examples with their reported Percentage inhibition of kinase enzyme activity follow.
smiles-text	result
CC#CC(=O)N1CCC[C@H]1c1nc(-c2ccc(C(=O)Nc3ccccn3)cc2)c2c(N)nccn12	-9.14
C=CC(=O)N1CCC[C@@H](n2nc(-c3ccc(Oc4ccccc4)cc3)c3c(N)ncnc32)C1	0.41
COc1ccc(F)cc1C(=O)NCc1ccc(-c2nn([C@@H](C)C(F)(F)F)c(N)c2C(N)=O)cc1	0.45
O=C(c1ccc(Oc2ccccc2)cc1Cl)c1c[nH]c2ncnc(N[C@@H]3CC[C@@H](CO)OC3)c12	14.34

Please examine the following record next.
Please look up its Percentage inhibition of kinase enzyme activity: "C=CC(=O)N1CCC([C@@H]2CCNc3c(C(N)=O)c(-c4ccc(Oc5ccccc5)cc4)nn32)CC1"
9.66

----------
Target: MSSK1 (Homo sapiens, UniProt Q9UPE1)
Construct: purchased Carna Biosciences
Sequence (Q9UPE1 whole entry): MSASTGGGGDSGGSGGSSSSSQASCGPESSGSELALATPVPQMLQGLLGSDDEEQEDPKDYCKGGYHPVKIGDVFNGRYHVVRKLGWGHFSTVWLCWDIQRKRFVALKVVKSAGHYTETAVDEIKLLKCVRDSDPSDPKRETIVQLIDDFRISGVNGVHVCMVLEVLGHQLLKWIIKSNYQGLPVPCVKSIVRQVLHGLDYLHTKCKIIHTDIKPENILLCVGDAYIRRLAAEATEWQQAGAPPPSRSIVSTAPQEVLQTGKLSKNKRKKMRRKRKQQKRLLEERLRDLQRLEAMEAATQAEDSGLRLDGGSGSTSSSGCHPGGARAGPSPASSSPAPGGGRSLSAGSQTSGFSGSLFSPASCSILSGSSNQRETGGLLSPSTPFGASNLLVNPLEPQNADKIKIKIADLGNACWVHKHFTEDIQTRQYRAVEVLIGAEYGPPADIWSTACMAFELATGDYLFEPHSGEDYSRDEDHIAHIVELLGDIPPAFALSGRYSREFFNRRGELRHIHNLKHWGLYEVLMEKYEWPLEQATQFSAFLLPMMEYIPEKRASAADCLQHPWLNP
Experiment: Kinase panel profiling at 1 µmol/L (mobility shift assay, Carna)
Assay type: biochemical
Conditions: 1 µmol/L of BTK inhibitor
Reported Percentage inhibition of kinase enzyme activity is given for each of the following compounds.
Give just the number in %; leave the unit off.

Examples with their reported Percentage inhibition of kinase enzyme activity follow.
compound	result
COc1ccc(F)cc1C(=O)NCc1ccc(-c2nn([C@@H](C)C(F)(F)F)c(N)c2C(N)=O)cc1 [pirtobrutinib]	-8.63
C=CC(=O)N1CCC[C@@H](n2nc(-c3ccc(Oc4ccccc4)cc3)c3c(N)ncnc32)C1 [ibrutinib]	1.54
CC#CC(=O)N1CCC[C@H]1c1nc(-c2ccc(C(=O)Nc3ccccn3)cc2)c2c(N)nccn12 [acalabrutinib]	-4.86

Please examine the following record next.
Please look up its Percentage inhibition of kinase enzyme activity: O=C(c1ccc(Oc2ccccc2)cc1Cl)c1c[nH]c2ncnc(N[C@@H]3CC[C@@H](CO)OC3)c12 [nemtabrutinib]
-0.95

----------
Molecular target: EPHA2 (Homo sapiens, UniProt P29317)
Construct: purchased Carna Biosciences
Sequence (P29317 24-976): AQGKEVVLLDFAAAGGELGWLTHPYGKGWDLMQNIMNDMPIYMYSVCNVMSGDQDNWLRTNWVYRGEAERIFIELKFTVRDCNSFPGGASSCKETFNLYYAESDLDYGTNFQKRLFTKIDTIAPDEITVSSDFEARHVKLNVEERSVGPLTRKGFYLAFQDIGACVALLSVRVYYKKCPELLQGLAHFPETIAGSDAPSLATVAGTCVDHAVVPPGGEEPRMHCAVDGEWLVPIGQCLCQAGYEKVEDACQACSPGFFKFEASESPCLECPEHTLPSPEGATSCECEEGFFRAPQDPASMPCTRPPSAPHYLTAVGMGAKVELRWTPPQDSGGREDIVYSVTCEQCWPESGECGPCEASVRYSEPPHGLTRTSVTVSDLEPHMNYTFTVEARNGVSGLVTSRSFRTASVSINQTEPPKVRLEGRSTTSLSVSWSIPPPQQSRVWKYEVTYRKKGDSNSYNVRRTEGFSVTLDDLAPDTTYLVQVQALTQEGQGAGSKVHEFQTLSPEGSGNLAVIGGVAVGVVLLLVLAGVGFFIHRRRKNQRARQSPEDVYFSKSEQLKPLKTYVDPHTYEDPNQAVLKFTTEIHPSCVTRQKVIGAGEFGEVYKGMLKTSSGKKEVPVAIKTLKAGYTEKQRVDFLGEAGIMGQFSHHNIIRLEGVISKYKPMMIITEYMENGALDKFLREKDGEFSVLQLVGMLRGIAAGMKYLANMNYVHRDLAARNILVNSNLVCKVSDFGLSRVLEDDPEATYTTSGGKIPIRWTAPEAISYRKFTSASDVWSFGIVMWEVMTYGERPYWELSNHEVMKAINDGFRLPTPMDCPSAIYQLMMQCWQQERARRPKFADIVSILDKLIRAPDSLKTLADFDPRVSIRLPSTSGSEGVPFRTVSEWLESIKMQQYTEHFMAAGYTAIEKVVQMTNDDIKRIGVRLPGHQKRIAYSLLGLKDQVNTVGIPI
Test: Kinase panel profiling at 1 µmol/L (mobility shift assay, Carna)
Format: biochemical
Settings: 1 µmol/L of BTK inhibitor
Reported Percentage inhibition of kinase enzyme activity is given for each of the following compounds.
Give just the number in %; leave the unit off.

smiles-text	tested-on	result
C=CC(=O)N1CCC([C@@H]2CCNc3c(C(N)=O)c(-c4ccc(Oc5ccccc5)cc4)nn32)CC1	EPHA2 (Homo sapiens, UniProt P29317)	-0.10
CC#CC(=O)N1CCC[C@H]1c1nc(-c2ccc(C(=O)Nc3ccccn3)cc2)c2c(N)nccn12	EPHA2 (Homo sapiens, UniProt P29317)	-3.60

Fill in the recorded Percentage inhibition of kinase enzyme activity for this compound, with EPHA2 (Homo sapiens, UniProt P29317) as test system: "COc1ccc(F)cc1C(=O)NCc1ccc(-c2nn([C@@H](C)C(F)(F)F)c(N)c2C(N)=O)cc1"
4.53

Fill in the recorded Percentage inhibition of kinase enzyme activity for this compound, with EPHA2 (Homo sapiens, UniProt P29317) as test system: "C=CC(=O)N1CCC[C@@H](n2nc(-c3ccc(Oc4ccccc4)cc3)c3c(N)ncnc32)C1"
6.83

Fill in the recorded Percentage inhibition of kinase enzyme activity for this compound, with EPHA2 (Homo sapiens, UniProt P29317) as test system: "O=C(c1ccc(Oc2ccccc2)cc1Cl)c1c[nH]c2ncnc(N[C@@H]3CC[C@@H](CO)OC3)c12"
33.13

----------
Molecular target: MRCKα (Homo sapiens, UniProt Q5VT25)
Construct: purchased Carna Biosciences
Assay: Kinase panel profiling at 1 µmol/L (mobility shift assay, Carna)
Assay type: biochemical
Settings: 1 µmol/L of BTK inhibitor
Reported Percentage inhibition of kinase enzyme activity is given for each of the following compounds.
Give just the number in %; leave the unit off.

Examples with their reported Percentage inhibition of kinase enzyme activity follow.
smiles-text	result
CC#CC(=O)N1CCC[C@H]1c1nc(-c2ccc(C(=O)Nc3ccccn3)cc2)c2c(N)nccn12	-7.47
C=CC(=O)N1CCC[C@@H](n2nc(-c3ccc(Oc4ccccc4)cc3)c3c(N)ncnc32)C1	-0.62
O=C(c1ccc(Oc2ccccc2)cc1Cl)c1c[nH]c2ncnc(N[C@@H]3CC[C@@H](CO)OC3)c12	9.50

Please examine the following record next.
Please look up its Percentage inhibition of kinase enzyme activity: "COc1ccc(F)cc1C(=O)NCc1ccc(-c2nn([C@@H](C)C(F)(F)F)c(N)c2C(N)=O)cc1"
0.63

----------
Target: MSK1 (Homo sapiens)
Construct: purchased Carna Biosciences
Sequence (O75582 whole entry): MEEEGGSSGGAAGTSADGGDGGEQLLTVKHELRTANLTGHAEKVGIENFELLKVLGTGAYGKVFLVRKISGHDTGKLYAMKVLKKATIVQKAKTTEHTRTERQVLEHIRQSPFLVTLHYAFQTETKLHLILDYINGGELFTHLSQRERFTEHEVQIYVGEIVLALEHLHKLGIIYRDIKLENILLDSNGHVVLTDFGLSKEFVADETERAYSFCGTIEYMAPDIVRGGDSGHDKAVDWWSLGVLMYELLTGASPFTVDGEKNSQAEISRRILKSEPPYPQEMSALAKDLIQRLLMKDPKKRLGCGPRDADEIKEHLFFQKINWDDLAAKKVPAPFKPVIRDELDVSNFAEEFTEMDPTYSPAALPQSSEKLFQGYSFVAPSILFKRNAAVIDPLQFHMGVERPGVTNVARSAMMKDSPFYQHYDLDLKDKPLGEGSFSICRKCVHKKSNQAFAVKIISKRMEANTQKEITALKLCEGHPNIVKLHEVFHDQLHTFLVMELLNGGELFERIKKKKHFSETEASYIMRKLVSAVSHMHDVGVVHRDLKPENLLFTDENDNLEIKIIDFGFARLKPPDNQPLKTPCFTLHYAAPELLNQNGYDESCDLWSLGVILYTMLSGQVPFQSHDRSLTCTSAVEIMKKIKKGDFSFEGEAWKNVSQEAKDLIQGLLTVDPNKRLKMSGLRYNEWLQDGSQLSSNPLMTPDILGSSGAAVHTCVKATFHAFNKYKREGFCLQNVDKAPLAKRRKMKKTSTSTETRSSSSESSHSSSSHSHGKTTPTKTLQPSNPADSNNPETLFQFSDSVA
Test: Kinase panel profiling at 1 µmol/L (mobility shift assay, Carna)
Assay type: biochemical
Conditions: 1 µmol/L of BTK inhibitor
assay-endpoint: Percentage inhibition of kinase enzyme activity (%)
Give just the number in %; leave the unit off.

compound	tested-on	result
CC#CC(=O)N1CCC[C@H]1c1nc(-c2ccc(C(=O)Nc3ccccn3)cc2)c2c(N)nccn12 [acalabrutinib]	MSK1 (Homo sapiens)	-7.68
COc1ccc(F)cc1C(=O)NCc1ccc(-c2nn([C@@H](C)C(F)(F)F)c(N)c2C(N)=O)cc1 [pirtobrutinib]	MSK1 (Homo sapiens)	4.32
O=C(c1ccc(Oc2ccccc2)cc1Cl)c1c[nH]c2ncnc(N[C@@H]3CC[C@@H](CO)OC3)c12 [nemtabrutinib]	MSK1 (Homo sapiens)	11.30
C=CC(=O)N1CCC([C@@H]2CCNc3c(C(N)=O)c(-c4ccc(Oc5ccccc5)cc4)nn32)CC1 [zanubrutinib]	MSK1 (Homo sapiens)	0.57

Please look up its Percentage inhibition of kinase enzyme activity: C=CC(=O)N1CCC[C@@H](n2nc(-c3ccc(Oc4ccccc4)cc3)c3c(N)ncnc32)C1 [ibrutinib]
-1.18

----------
Target: RSK2 (Homo sapiens)
Construct: purchased Carna Biosciences
Sequence (P51812 whole entry): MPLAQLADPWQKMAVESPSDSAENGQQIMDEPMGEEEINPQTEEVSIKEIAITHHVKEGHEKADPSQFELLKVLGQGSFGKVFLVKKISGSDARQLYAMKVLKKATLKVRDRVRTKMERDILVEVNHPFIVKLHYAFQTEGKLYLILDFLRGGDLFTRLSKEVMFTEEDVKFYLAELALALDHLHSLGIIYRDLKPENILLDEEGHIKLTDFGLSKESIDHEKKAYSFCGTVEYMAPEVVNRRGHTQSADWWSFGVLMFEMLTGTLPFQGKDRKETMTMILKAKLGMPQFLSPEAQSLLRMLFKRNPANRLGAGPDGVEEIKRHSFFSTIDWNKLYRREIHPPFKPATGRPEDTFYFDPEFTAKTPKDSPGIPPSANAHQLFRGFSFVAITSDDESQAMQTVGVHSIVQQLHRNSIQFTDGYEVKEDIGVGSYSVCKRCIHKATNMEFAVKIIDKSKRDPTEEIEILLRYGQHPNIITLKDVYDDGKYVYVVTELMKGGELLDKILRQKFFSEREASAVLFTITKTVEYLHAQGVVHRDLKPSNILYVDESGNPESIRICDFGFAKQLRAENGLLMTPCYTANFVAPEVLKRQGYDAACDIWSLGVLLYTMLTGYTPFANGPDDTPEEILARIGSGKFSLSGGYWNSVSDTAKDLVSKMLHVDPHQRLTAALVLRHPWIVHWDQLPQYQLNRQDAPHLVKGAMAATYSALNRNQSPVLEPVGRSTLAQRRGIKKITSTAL
Test: Kinase panel profiling at 1 µmol/L (mobility shift assay, Carna)
Type: biochemical
Conditions: 1 µmol/L of BTK inhibitor
assay-endpoint: Percentage inhibition of kinase enzyme activity (%)
Give just the number in %; leave the unit off.

Examples with their reported Percentage inhibition of kinase enzyme activity follow.
smiles-text	result
COc1ccc(F)cc1C(=O)NCc1ccc(-c2nn([C@@H](C)C(F)(F)F)c(N)c2C(N)=O)cc1	2.95
C=CC(=O)N1CCC[C@@H](n2nc(-c3ccc(Oc4ccccc4)cc3)c3c(N)ncnc32)C1	7.41
O=C(c1ccc(Oc2ccccc2)cc1Cl)c1c[nH]c2ncnc(N[C@@H]3CC[C@@H](CO)OC3)c12	7.48

Please examine the following record next.
Please look up its Percentage inhibition of kinase enzyme activity: "CC#CC(=O)N1CCC[C@H]1c1nc(-c2ccc(C(=O)Nc3ccccn3)cc2)c2c(N)nccn12"
0.054

----------
Target: TXK (Homo sapiens, UniProt P42681)
Construct: purchased Carna Biosciences
Sequence (P42681 whole entry): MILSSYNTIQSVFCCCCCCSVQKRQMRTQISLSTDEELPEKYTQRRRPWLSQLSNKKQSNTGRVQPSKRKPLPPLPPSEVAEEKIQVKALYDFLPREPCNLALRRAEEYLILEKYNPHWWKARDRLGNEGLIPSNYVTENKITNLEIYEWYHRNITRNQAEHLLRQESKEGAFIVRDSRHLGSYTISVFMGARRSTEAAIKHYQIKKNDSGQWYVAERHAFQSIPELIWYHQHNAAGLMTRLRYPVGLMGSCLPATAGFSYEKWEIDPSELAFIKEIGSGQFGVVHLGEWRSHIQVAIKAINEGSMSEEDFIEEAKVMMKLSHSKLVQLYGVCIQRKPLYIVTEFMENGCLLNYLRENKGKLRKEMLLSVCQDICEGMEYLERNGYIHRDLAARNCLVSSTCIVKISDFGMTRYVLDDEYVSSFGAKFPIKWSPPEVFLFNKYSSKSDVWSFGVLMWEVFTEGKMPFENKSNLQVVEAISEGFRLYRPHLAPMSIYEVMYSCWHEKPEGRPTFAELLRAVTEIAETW
Assay: Kinase panel profiling at 1 µmol/L (mobility shift assay, Carna)
Type: biochemical
Settings: 1 µmol/L of BTK inhibitor
Reported Percentage inhibition of kinase enzyme activity is given for each of the following molecules.
Give just the number in %; leave the unit off.

Examples with their reported Percentage inhibition of kinase enzyme activity follow.
molecule	result
C=CC(=O)N1CCC([C@@H]2CCNc3c(C(N)=O)c(-c4ccc(Oc5ccccc5)cc4)nn32)CC1 [zanubrutinib]	89.43
COc1ccc(F)cc1C(=O)NCc1ccc(-c2nn([C@@H](C)C(F)(F)F)c(N)c2C(N)=O)cc1 [pirtobrutinib]	43.03
C=CC(=O)N1CCC[C@@H](n2nc(-c3ccc(Oc4ccccc4)cc3)c3c(N)ncnc32)C1 [ibrutinib]	98.38

Please look up its Percentage inhibition of kinase enzyme activity: CC#CC(=O)N1CCC[C@H]1c1nc(-c2ccc(C(=O)Nc3ccccn3)cc2)c2c(N)nccn12 [acalabrutinib]
67.66

Please look up its Percentage inhibition of kinase enzyme activity: O=C(c1ccc(Oc2ccccc2)cc1Cl)c1c[nH]c2ncnc(N[C@@H]3CC[C@@H](CO)OC3)c12 [nemtabrutinib]
97.01
